Values from PubChem BioAssay AID1671202

test.target: Huntingtin (Homo sapiens) (UniProt P42858)
Sequence (P42858 whole entry, looked up, stated change not applied): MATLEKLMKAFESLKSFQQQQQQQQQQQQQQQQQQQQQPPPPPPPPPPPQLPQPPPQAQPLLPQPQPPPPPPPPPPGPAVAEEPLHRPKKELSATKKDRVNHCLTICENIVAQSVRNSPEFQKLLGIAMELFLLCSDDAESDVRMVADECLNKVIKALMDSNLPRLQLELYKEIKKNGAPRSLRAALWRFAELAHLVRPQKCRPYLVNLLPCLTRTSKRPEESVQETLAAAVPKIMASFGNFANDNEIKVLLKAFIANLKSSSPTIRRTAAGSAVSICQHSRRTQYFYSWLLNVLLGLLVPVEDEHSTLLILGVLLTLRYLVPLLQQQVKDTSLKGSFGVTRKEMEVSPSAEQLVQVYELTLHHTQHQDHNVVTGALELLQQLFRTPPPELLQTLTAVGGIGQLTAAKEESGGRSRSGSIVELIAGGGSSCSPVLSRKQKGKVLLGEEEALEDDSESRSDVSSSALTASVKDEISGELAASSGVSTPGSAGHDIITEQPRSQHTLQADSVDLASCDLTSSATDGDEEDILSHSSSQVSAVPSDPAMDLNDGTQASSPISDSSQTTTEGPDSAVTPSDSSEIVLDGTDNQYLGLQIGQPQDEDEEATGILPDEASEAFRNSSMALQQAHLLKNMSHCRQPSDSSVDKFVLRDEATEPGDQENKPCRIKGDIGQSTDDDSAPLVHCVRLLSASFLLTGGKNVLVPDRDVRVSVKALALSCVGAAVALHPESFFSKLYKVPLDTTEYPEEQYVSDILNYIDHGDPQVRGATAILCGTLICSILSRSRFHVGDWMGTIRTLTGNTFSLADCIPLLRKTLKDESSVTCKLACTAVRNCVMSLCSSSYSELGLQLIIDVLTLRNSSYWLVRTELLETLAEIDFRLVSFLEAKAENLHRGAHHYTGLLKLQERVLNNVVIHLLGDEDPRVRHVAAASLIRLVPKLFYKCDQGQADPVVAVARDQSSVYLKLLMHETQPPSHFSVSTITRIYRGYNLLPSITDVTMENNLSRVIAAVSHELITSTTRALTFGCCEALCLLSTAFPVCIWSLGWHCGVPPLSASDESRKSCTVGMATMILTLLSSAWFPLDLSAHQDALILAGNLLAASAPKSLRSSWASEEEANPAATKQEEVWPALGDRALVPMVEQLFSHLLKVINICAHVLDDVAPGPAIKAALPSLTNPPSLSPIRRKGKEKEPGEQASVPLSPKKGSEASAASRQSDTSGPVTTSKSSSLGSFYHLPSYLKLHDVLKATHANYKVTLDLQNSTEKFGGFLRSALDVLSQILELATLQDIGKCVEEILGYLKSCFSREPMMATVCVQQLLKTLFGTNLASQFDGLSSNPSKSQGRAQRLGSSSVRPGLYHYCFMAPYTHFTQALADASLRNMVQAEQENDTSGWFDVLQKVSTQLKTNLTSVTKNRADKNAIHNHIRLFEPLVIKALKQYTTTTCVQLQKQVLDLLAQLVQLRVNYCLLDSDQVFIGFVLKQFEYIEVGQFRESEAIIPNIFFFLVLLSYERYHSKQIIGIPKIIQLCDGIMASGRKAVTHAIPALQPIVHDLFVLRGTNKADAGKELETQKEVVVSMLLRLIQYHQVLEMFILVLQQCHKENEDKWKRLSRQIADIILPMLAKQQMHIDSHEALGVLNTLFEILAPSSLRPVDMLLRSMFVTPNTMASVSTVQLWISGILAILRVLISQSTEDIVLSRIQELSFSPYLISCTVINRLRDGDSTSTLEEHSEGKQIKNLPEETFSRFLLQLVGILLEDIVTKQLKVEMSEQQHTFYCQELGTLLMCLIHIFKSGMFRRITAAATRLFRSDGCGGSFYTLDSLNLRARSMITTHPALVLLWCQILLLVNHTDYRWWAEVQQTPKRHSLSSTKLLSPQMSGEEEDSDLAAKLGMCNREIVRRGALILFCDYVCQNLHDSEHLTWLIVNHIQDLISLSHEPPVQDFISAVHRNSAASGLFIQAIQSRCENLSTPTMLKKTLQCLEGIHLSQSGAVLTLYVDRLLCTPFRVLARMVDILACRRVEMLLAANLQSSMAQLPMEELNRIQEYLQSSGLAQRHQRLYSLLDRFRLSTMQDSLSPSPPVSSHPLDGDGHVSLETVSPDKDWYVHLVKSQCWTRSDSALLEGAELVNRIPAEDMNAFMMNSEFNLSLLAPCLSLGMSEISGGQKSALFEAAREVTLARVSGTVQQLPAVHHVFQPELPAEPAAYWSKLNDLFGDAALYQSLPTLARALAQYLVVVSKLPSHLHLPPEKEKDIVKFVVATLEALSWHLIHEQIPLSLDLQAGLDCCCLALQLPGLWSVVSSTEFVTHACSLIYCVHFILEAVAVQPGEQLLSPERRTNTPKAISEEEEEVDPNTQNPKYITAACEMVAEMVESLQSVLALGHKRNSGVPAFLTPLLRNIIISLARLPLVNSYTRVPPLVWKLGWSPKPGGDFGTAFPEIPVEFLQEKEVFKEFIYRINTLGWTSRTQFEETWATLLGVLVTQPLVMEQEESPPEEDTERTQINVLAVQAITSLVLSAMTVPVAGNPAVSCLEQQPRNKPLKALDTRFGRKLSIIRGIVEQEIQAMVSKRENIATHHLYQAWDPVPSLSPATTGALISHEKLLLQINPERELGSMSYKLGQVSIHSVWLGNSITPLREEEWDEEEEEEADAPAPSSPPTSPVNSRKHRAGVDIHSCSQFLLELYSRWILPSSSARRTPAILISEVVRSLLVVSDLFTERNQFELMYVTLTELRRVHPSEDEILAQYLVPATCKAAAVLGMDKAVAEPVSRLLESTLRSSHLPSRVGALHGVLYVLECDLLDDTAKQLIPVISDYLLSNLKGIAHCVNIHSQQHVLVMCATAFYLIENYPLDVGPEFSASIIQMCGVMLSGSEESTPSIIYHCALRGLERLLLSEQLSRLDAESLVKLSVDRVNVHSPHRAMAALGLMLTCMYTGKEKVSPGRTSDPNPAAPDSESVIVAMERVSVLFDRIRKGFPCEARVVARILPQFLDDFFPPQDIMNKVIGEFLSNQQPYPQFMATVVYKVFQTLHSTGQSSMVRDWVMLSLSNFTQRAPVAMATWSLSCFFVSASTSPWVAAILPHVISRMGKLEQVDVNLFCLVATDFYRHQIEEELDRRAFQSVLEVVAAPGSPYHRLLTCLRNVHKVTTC
experimental.details: mutant huntingtin-calmodulin interaction inhibitors – biochemical, AlphaScreen, primary screen (AID 1671202);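 as to inhibition: 0% = both proteins with DMSO and 100% = one protein alone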
test.parameters: AlphaScreen His-mHTT/GST-CaM binding, luminescence; at 15 µM
Among all 190,000 compounds or so, about 6,900 (3.6%) were called active. Rule as the data show it: active = inhibition above about 50%; inactive = the rest. Many of the other results were omitted from the sample, so actives are more common in it than they were.
Outcomes you can answer with include only these: yes for active, no for inactive

q: Assay result, entry CCOc1cc(/C=C2\C(=O)ON=C2C)cc(Br)c1OCc1ccccc1F — outcome?
a: yes

q: Outcome logged for C=CCOc1ccc(/C=C2/C(=O)ON=C2C)cc1OCC in this assay:
a: yes

q: Hi team, can someone confirm the assay call for COc1ccc(C2C(C(=O)Nc3ccc(Cl)cc3)=C(C)Nc3nnnn32)cc1 (stereo unspecified) ?
a: no

q: Recorded test call requested for CCOc1c(Br)cc(/C=C2\NC(=O)N(Cc3ccccc3F)C2=O)cc1OC
a: no

q: Could you please tell me the result logged for CCOc1cc(C=C2C(=O)OC(C)(c3ccccc3)OC2=O)ccc1O (stereo unspecified) in this assay?
a: no

q: What was the test verdict on CC1=C/C(=N\Oc2ccc3noc4c3c2C(=O)c2ccccc2-4)C(C(C)C)=CC1=O ?
a: yes

q: // outcome(item) with item = Cc1ccc(NC(=O)CSC2=NC(C)(C)N=C2c2ccccc2)c(C)c1
a: no

q: Write down the call the test reported for this compound. Item: COc1ccc(C(=O)NC(C)c2ccccc2)cc1OC (stereo unspecified)
a: no

q: Identify the outcome logged in this assay for the compound shown: CCOc1cc(CNC(=O)C2CCN(c3nnc4ccccn34)CC2)ccc1OC
a: no

q: // outcome(item) with item = COc1ccc(C2CC(O)(c3ccccc3)Oc3cc(C)cc(C)c32)cc1 (stereo unspecified)
a: yes

q: Tell me the assay call for CCOC(=O)CCNC(=O)N1CCn2cccc2C1c1ccc(Cl)cc1 (stereo unspecified) please.
a: yes

---

test.target: Huntingtin (Homo sapiens)
experimental.details: mutant huntingtin-calmodulin interaction inhibitors – biochemical, AlphaScreen, primary screen (AID 1671202);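 as to inhibition: 0% = both proteins with DMSO and 100% = one protein alone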
test.parameters: AlphaScreen His-mHTT/GST-CaM binding, luminescence; at 15 µM, hits give high values
Hit rate of the full screen: of about 190,000 compounds, about 6,900 (3.6%) were called active. The sample as a whole holds a higher share of actives than the screen did.
What inhibition was measured for each of the following?
Value expressed in %; do not type the unit.

q: Suppose we examine the compound O=C(CCCn1c2ccccc2c(=O)c2ccccc21)Nc1ccc(C(F)(F)F)cn1 ; what inhibition value has been reported?
a: 23

q: Look at this compound and give its reported inhibition. O=C(c1ccc(F)c(F)c1)N1CCN(c2nnc3ccccn23)CC1
a: -6.3

q: Which value of inhibition has been reported for CC1=NOC(=O)/C1=C/c1ccc(-c2cc(Cl)ccc2Cl)o1 in the records?
a: -2

q: Any idea what its inhibition is? The compound is COc1ccc(CNC(=O)C2CC(=O)N(c3ccc(OCc4ccc(F)cc4)cc3)C2)cc1 (stereo not given)
a: -13.8

q: Quick one: inhibition of O=C1NN=C(c2ccccc2)/C1=C/c1ccc(-c2ccc(Cl)cc2)o1 ?
a: 61

q: Need inhibition, item COc1ccc(N2C(=O)CC(Nc3ccc(OC(F)(F)F)cc3)C2=O)cc1 (stereo not given)
a: -4

q: // query inhibition value for entry CCc1ccccc1NC(=O)NCCNc1cc(-n2nc(C)cc2C)nc(C)n1
a: -5.7

q: Consider the compound CC(=O)N1c2ccccc2NC2=C(C(=O)CC(C)(C)C2)C1c1ccc(N(C)C)cc1 (stereo not given) and give its measured inhibition.
a: 29.3

q: Fill blank: measured inhibition of the compound CSc1cccc(NC(=O)NCCNc2cc(-n3ccnc3C)nc(C)n2)c1 is ____.
a: 99.9

q: Please look up its inhibition: CCNc1cc(NCCNC(=O)c2cccc(F)c2)nc(C)n1
a: -7.5

---

test.target: Huntingtin (Homo sapiens) (UniProt P42858)
experimental.details: mutant huntingtin-calmodulin interaction inhibitors – biochemical, AlphaScreen, primary screen (AID 1671202);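 as to inhibition: 0% = both proteins with DMSO and 100% = one protein alone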
test.parameters: AlphaScreen His-mHTT/GST-CaM binding, luminescence; at 15 µM
Among all 190,000 compounds or so, about 6,900 (3.6%) were called active. Rule as the data show it: active = inhibition above about 50%; inactive = the rest. What follows is part of a selection rich in actives, with near analogues and random picks from the rest.
Hello, when you answer, please use one of the following outcomes: true for active, false for inactive

q: Record lookup: outcome of this test for Nc1c(C(=O)Nc2ccccc2I)sc2nc(-c3cccs3)ccc12 ?
a: false

q: State the result this test recorded for Cc1c(NC(=O)c2cccc([N+](=O)[O-])c2C)cccc1-c1nc2ccccc2[nH]1 .
a: false

q: Just curious, what result did Cn1cccc1C(=O)N1CCc2nc3cc(-c4ccccc4)[nH]n3c(=O)c2C1 get here?
a: false

q: Dear all, I need the recorded test outcome for COc1ccc(Cl)cc1C(=O)N1CCc2c(nc3cc[nH]n3c2=O)C1 , thank you.
a: false

q: Lab log entry: Cc1ccc2cc3cc(C(=O)N(C)c4ccc(Br)cc4)oc3nc2c1 — outcome as called in the assay?
a: false

q: Dear all, I need the recorded test outcome for COc1cc(OC)cc(C(=O)Nc2nc(C)c(C)s2)c1 , thank you.
a: false

q: How was COc1ccc2nc(NCCn3cccn3)sc2c1 classified in this test?
a: false

q: Give the logged outcome of this assay for the following molecule: COc1cc(N)ccc1NS(=O)(=O)c1ccc(C)cc1
a: false

q: How was O=C(Nc1ccccc1-c1nc2ccccc2[nH]1)c1ccccc1Br classified in this test?
a: true

q: What classification did COc1ccc(C2CC(O)(C#Cc3ccccc3)C(C)C(c3ccc(OC)cc3)N2)cc1 (stereo unspecified) end up with in this test?
a: true

q: What call does the record list for O=C(c1cccs1)N1CC(c2nc(-c3ncccn3)no2)C1 ?
a: false

---

test.target: Huntingtin (Homo sapiens)
experimental.details: mutant huntingtin-calmodulin interaction inhibitors – biochemical, AlphaScreen, primary screen (AID 1671202);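 as to inhibition: 0% = both proteins with DMSO and 100% = one protein alone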
test.parameters: AlphaScreen His-mHTT/GST-CaM binding, luminescence; at 15 µM, hits give high values
The whole screen tested about 190,000 compounds, of which about 6,900 (3.6%) were called active. The entries come from a sample that favours actives as a whole.
What inhibition was measured for each of the following?
Write down the numeric answer in % and omit the unit.

q: Find inhibition (Huntingtin (Homo sapiens)) for the entry C[C@H]1[C@H](NC(=O)c2cccc(N(C)C)c2)CC[C@@]23CCCN2C(=O)CCC[C@@H]13
a: -15.6

q: Query inhibition on Huntingtin (Homo sapiens) for CCc1ccc(CNC(=O)C2CC(=O)N(c3ccc4c(c3)CCN4C(C)=O)C2)cc1 (centres undefined)
a: -4.01

q: Give Huntingtin (Homo sapiens) inhibition for O=c1[nH]c(SCc2ccccc2)nnc1-c1ccccc1
a: -3

q: Find the measured inhibition: item CCOc1ccc(/C=C2\CS/C(=C\c3ccc(OCC)cc3)C2=O)cc1 , target or system Huntingtin (Homo sapiens).
a: 28

---

test.target: Huntingtin (Homo sapiens) (UniProt P42858)
experimental.details: mutant huntingtin-calmodulin interaction inhibitors – biochemical, AlphaScreen, primary screen (AID 1671202);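 as to inhibition: 0% = both proteins with DMSO and 100% = one protein alone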
test.parameters: AlphaScreen His-mHTT/GST-CaM binding, luminescence; at 15 µM
The campaign covered roughly 190,000 compounds. About 6,900 (3.6%) were called active. Rule as the data show it: active = inhibition above about 50%; inactive = the rest. Many of the other results were omitted from the sample, so actives are more common in it than they were.
Give your call using only these classes: active, inactive

q: Name the outcome recorded for CCN(CC)CCC(c1ccc2c(c1)OCO2)c1c(OC)cc(OC)c2c(-c3ccccc3)cc(=O)oc12 (stereo not given) in the assay.
a: active

q: Look up the recorded call for O=S(=O)(Nc1ccc(Cl)cc1F)c1c[nH]c2ncccc12 in this test.
a: active

q: Recorded test outcome, item CN1CCN(Cc2c(O)ccc3c2OC(=Cc2cc4cc(Br)ccc4o2)C3=O)CC1
a: active

q: // outcome(item) with item = COc1ccc(C=C2Oc3c(ccc(O)c3CN3CCN(C)CC3)C2=O)cc1OC
a: inactive

q: Call for entry Cc1nc(-c2ccccc2)sc1C(=O)NCCOc1ccc(-c2cccs2)nn1 :
a: inactive

q: Tell me the recorded outcome of this test for COc1cccc2cc(-c3nc(-c4ccc5c(c4)OCO5)cs3)c(=O)oc12 .
a: inactive

q: Fill in: this test's call for CCCN(CCC)CCCNC(=O)CSc1nc2nc(C)c(Cc3ccccc3)c(C)n2n1 is ___
a: inactive

q: Per the records of this test, what outcome belongs to CCN(CC)C(=O)CC(c1ccc2c(c1)OCO2)c1c(OC)cc(OC)c2c(-c3ccccc3)cc(=O)oc12 (stereo not given) ?
a: active

q: Call for entry O=C1C2CC(Br)C(Br)CC2C(=O)N1c1ccc([N+](=O)[O-])cc1 (stereo not given) :
a: inactive

q: What did the test return for COc1ccc([N+](=O)[O-])cc1-n1c(C)ccc1C ?
a: active

q: Record lookup: outcome of this test for CCOc1ccc(S(=O)(=O)Nc2ccccc2F)c2cccnc12 ?
a: inactive

q: Per the assay record, what outcome was assigned to COc1ccccc1C(=O)Nc1nc2n(n1)C(c1ccccc1)C=C(c1ccc(Cl)cc1)N2 (stereo not given) ?
a: active

q: Could you please tell me the result logged for COC(=O)c1ccc(CN2CCCC2c2cc(C)on2)cc1 (stereo not given) in this assay?
a: inactive

q: Dear all, I need the recorded test outcome for COc1ccc([N+](=O)[O-])cc1NC(=O)CC(C)C , thank you.
a: inactive

q: Please indicate how the test categorized O=S(=O)(Nc1ccc(F)cc1)c1cccnc1Nc1ccc(Cl)cc1 .
a: inactive
